target: MRGPRX4-83S (Homo sapiens, UniProt Q96LA9, L83S); assay: β-arrestin assay (CHO β-arrestin human MRGPRX4-83S); format: cell-based; parameters: host or cells: CHO β-arrestin cells; details: Table 2; β-arrestin recruitment, CHO cells, MRGPRX4-83S; read-out: EC50 ± SEM
Sequence (Q96LA9 whole entry L83S): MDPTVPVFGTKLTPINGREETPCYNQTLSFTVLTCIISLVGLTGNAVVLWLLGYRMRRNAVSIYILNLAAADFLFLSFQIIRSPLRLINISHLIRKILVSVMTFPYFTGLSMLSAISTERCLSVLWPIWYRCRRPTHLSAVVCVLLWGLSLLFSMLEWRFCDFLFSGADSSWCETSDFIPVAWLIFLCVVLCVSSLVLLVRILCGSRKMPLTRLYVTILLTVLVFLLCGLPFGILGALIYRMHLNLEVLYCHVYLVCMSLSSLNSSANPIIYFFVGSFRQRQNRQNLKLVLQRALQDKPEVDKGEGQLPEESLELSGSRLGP
measured attribute: EC50 (nM)

# count of solved cases: 5
>>> df
                                   compound  result
0  CCCn1c(=O)c2c(nc(CCc3cccc(OC)c3)n2C)n(CCCOP(=O)(O)O)c1=O [H-2, reference compound]     674
1  C#CCn1c(=O)c2[nH]c(CCc3cccc(F)c3)nc2n(CCCCP(=O)(O)O)c1=O    33.9
2  CCn1c(=O)c2[nH]c(CCc3cccc(OC)c3)nc2n(CCCCP(=O)(O)O)c1=O    1190
3  C#CCn1c(=O)c2[nH]c(/C=C/c3cccc(OC)c3)nc2n(CCCCP(=O)(O)O)c1=O     200
4  CCCn1c(=O)c2[nH]c(C3CCCC3)nc2n(CCCCP(=O)(O)O)c1=O    6360

a. C#CCn1c(=O)c2[nH]c(CCc3ccccc3OC)nc2n(CCCCP(=O)(O)O)c1=O
b. C#CCn1c(=O)c2[nH]c(CCc3cccc(OC)c3)nc2n(CCCCP(=O)(O)O)c1=O
a or b : whose EC50 is greater? Your answer should be the label of the entry you select.
b

P. C#CCn1c(=O)c2[nH]c(CCc3cccc(C)c3)nc2n(CCCCP(=O)(O)O)c1=O
Q. C#CCn1c(=O)c2[nH]c(CCc3ccccc3Cl)nc2n(CCCCP(=O)(O)O)c1=O
Hey, between P and Q which has a smaller measured EC50? Your answer should be the label of the entry you select.
Q
(Q: 3.45 nM, P: 34.3 nM)
